molecular target: Extracellular calcium-sensing receptor (Homo sapiens, UniProt P41180); assay: Binding affinity to human parathyroid calcium receptor 1 expressed in HEK293 4.0-7 cells by radioligand binding assay
Sequence (P41180 whole entry): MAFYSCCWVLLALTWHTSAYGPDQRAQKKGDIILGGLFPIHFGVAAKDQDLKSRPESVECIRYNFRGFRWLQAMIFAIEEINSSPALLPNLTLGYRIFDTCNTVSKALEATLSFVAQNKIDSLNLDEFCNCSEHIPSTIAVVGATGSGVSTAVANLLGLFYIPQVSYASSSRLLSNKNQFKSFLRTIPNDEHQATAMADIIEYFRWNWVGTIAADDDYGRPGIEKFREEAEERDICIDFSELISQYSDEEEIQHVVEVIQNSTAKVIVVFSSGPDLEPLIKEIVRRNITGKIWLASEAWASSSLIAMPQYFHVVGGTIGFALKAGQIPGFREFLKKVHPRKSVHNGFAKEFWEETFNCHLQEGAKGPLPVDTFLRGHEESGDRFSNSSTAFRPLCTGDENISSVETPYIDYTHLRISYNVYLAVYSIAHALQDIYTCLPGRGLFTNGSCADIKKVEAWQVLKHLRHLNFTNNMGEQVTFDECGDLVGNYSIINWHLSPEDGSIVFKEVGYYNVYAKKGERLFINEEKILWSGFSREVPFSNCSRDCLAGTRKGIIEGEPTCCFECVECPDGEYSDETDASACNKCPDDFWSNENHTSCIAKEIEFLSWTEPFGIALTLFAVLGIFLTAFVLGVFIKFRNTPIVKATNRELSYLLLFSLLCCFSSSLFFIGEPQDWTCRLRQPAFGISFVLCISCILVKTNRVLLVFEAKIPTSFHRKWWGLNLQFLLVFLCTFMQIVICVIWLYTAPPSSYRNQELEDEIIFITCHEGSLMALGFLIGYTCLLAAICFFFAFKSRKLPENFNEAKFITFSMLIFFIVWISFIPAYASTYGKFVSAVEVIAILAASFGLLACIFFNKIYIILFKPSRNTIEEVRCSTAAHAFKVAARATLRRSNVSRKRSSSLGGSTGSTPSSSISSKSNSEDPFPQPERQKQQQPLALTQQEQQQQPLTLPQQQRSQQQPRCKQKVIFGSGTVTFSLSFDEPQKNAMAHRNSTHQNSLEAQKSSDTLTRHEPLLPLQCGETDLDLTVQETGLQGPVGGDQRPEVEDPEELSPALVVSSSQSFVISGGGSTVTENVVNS
Binarize IC50 at 3000 nM; below is Fulfilled, at or above is Not fulfilled.

Ask | Lab note: confirm whether the reported IC50 for this compound is below 3000 nM, equality not counting. compound: `COc1ccc(CC(C)(C)NC[C@H](O)COc2cccc(Cl)c2Cl)cc1`
Reply | Fulfilled

Ask | Consider the compound COc1ccc(CCC(C)(C)NCC(O)COc2ccccc2)cc1 (racemic) . Is its IC50 strictly less than 3000 nM?
Reply | Fulfilled

Ask | Quick check: IC50 of `COc1ccc(CC(C)(C)NC[C@H](O)COc2cccc3[nH]c(=O)[nH]c23)cc1` under 3000 nM?
Reply | Not fulfilled

Further cases:
Ask | Confirm or reject: IC50 of `COc1ccc(CC(C)(C)NCCCOc2cccc(Cl)c2Cl)cc1` lies strictly below 3000 nM
Reply | Fulfilled

Ask | I'd appreciate it if you could check whether CCCOCC(O)CNC(C)(C)Cc1ccc(OC)cc1 (racemic) has IC50 smaller than 3000 nM.
Reply | Not fulfilled

Data origin: ChEMBL document CHEMBL1137011
